protocol description: VP16 counterscreen qHTS for inhibitors of ROR gamma transcriptional activity
conditions used: Drosophila S2 Gal4-VP16 UAS-luciferase, luminescence, 20 h; series mostly up to 53.6 µM
The campaign covered roughly 310,000 compounds. About 11,000 (3.5%) were called active. Not shown: some 8% with an inconclusive outcome. The call rests on the fitted dose curve; in most records, active means well fitted inhibition curve with a large enough effect; inconclusive means small, poorly fitted or top-dose-only effect, or effect the other way; inactive means flat fitted curve, though single readings scatter. Shown is part of a subset that was picked to be rich in actives.
# output must be one of active, inactive

[
  {
    "compound": "O=C(NNC(=O)C(O)c1ccccc1)NC1CCCCC1 (stereo not drawn)",
    "discrete label": "inactive"
  },
  {
    "compound": "CCC(C)c1ccc(NC(=S)NCc2ccccn2)cc1 (stereo not drawn)",
    "discrete label": "active"
  },
  {
    "compound": "Fc1ccccc1/C=C1\\CCCC2=C1Nc1ncnn1C2c1ccccc1F (stereo not drawn)",
    "discrete label": "active"
  },
  {
    "compound": "O=C(NCc1ccccn1)Nc1ccc(F)cc1",
    "discrete label": "inactive"
  },
  {
    "compound": "COc1cc(S(=O)(=O)N2CCN=C2c2ccccc2)ccc1Cl",
    "discrete label": "inactive"
  },
  {
    "compound": "COc1ccc(/C=N/NS(=O)(=O)c2ccc(NC(C)=O)cc2)cc1",
    "discrete label": "inactive"
  },
  {
    "compound": "O=C(O)c1ccc(/C=N/Nc2nc(N3CCCCC3)nc(N3CCCCC3)n2)cc1",
    "discrete label": "inactive"
  },
  {
    "compound": "Cc1nn(-c2ccccc2)c(C)c1C(=O)OCC(=O)NC(=O)NC1CCCCC1",
    "discrete label": "inactive"
  }
]

Switching to the query record.
Which outcome was entered for the compound CC(=O)c1c(C)oc2ccc(NS(=O)(=O)c3ccc(C(=O)O)cc3)cc12 in this test? inactive

###

protocol description: VP16 counterscreen qHTS for inhibitors of ROR gamma transcriptional activity
conditions used: Drosophila S2 Gal4-VP16 UAS-luciferase, luminescence, 20 h; series mostly up to 53.6 µM
The whole screen tested about 310,000 compounds, of which about 11,000 (3.5%) were called active. Not shown: some 8% with an inconclusive outcome. The call rests on the fitted dose curve; in most records, active means well fitted inhibition curve with a large enough effect; inconclusive means small, poorly fitted or top-dose-only effect, or effect the other way; inactive means flat fitted curve, though single readings scatter. The sample as a whole holds a higher share of actives than the screen did.
# output must be one of active, inactive

[
  {
    "compound": "CCn1c(O)c(N=NC(=O)c2cccc(S(=O)(=O)N3CCCCC3)c2)c2ccccc21",
    "discrete label": "inactive"
  },
  {
    "compound": "O=C(N/C(=C\\c1ccc([N+](=O)[O-])cc1)C(=O)N1CCOCC1)c1cccc(Br)c1",
    "discrete label": "inactive"
  },
  {
    "compound": "COc1cccc(/C=C2\\C=C(c3ccc(C)cc3)OC2=O)c1OC(C)=O",
    "discrete label": "inactive"
  },
  {
    "compound": "COc1ccccc1CN1CCN(C(c2ccccc2)c2ccccc2)CC1",
    "discrete label": "inactive"
  },
  {
    "compound": "O=S(=O)(Cc1cc(Cl)nc(-c2cccnc2)n1)c1ccccc1",
    "discrete label": "inactive"
  }
]

Switching to the query record.
Which outcome was entered for the compound CC(C)CCN(C(=O)c1csnn1)C(C(=O)NC1CCCC1)c1ccccc1 (stereo not given) in this test? inactive

###

protocol description: VP16 counterscreen qHTS for inhibitors of ROR gamma transcriptional activity;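 further: Gal4-VP16 expression switched on by copper sulfate through the metallothionein promoter; nearly all actives have a fitted effect of over 50% in size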
conditions used: Drosophila S2 Gal4-VP16 UAS-luciferase, luminescence, 20 h; series mostly up to 53.6 µM
Screen size: about 310,000 compounds; about 11,000 (3.5%) were called active. About 8% were inconclusive and are not listed. The call rests on the fitted dose curve; in most records, active means well fitted inhibition curve with a large enough effect; inconclusive means small, poorly fitted or top-dose-only effect, or effect the other way; inactive means flat fitted curve, though single readings scatter. The list comes from a sample in which actives are over-represented; it also holds close analogues and randomly drawn compounds.
# output must be one of true (active), false (inactive)

Here are 10 compounds together with their reported answers.
[
  {
    "compound": "CC(=O)Nc1cccc(C(=O)Nc2nc(C)cs2)c1",
    "discrete label": "false"
  },
  {
    "compound": "O=C(Cc1cccs1)N/N=C/c1ccc(OCc2ccccc2)cc1",
    "discrete label": "false"
  },
  {
    "compound": "O=C(N/N=C/c1ccc(OCc2ccccc2)cc1)c1ccc(O)cc1",
    "discrete label": "true"
  },
  {
    "compound": "CC/C(=N\\NC(=S)NC(C)C)c1ccc(OC(F)F)cc1",
    "discrete label": "false"
  },
  {
    "compound": "O=C(NCCc1ccccc1)C1CC1",
    "discrete label": "false"
  },
  {
    "compound": "CCCCCCC(=O)N(O)C1CC(=O)N(c2ccccc2)C1=O (centres undefined)",
    "discrete label": "true"
  },
  {
    "compound": "O=C(COc1ccc2c3c(c(=O)oc2c1)CCCC3)NCC(O)c1ccccc1 (centres undefined)",
    "discrete label": "false"
  },
  {
    "compound": "CCCNC(=O)CSc1nc(Cc2ccccc2)nc2ccccc12",
    "discrete label": "false"
  },
  {
    "compound": "Cc1ccc(C(=O)NCCNC(=O)c2ccccc2)cc1",
    "discrete label": "false"
  },
  {
    "compound": "O=C(CSc1ccc(-c2ccco2)nn1)Nc1cccc(F)c1",
    "discrete label": "false"
  }
]

Which outcome was entered for the compound CCCCNC(=S)NNC(=O)c1cc(C)on1 in this test? true

And Cc1cc(C(=O)NCCCc2ccccc2)no1 ? false

And S=C(Nc1cccc(Cl)c1)Nc1ccc2cn[nH]c2c1 ? false

And COC(=O)CSc1nnc(NC(=O)CCc2ccccc2)s1 ? false

###

protocol description: VP16 counterscreen qHTS for inhibitors of ROR gamma transcriptional activity;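 further: Gal4-VP16 expression switched on by copper sulfate through the metallothionein promoter; nearly all actives have a fitted effect of over 50% in size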
conditions used: Drosophila S2 Gal4-VP16 UAS-luciferase, luminescence, 20 h; series mostly up to 53.6 µM
Out of some 310,000 compounds screened, about 11,000 (3.5%) were called active. About 8% were inconclusive and are not listed. Calls come from the whole dose curve; as a rule, active = well fitted inhibition curve with a large enough effect; inconclusive = small, poorly fitted or top-dose-only effect, or effect the other way; inactive = flat fitted curve, though single readings scatter. Shown is part of a subset that was picked to be rich in actives.
# output must be one of active, inactive

Which outcome was entered for the compound CCOC(=O)c1csc(CCNC(=O)c2oc3c(Cl)cc(C)cc3c2C)n1 in this test? inactive

And CCCc1nc2sc3c(c2c(=O)n1NC(=O)CCCl)CCCC3 ? inactive

And Cc1ccc(-c2noc(C3CCCN(C(=O)c4cccc(Cl)c4)C3)n2)o1 (stereo not drawn) ? inactive

And COc1cccc(CNC(=O)Cn2c(=O)oc3cc(S(=O)(=O)N4CCCCC4)ccc32)c1 ? inactive

And O=C(OCC(=O)N1CCN(C(=O)c2ccco2)CC1)c1cccc(O)c1 ? inactive

###

protocol description: VP16 counterscreen qHTS for inhibitors of ROR gamma transcriptional activity;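 further: Gal4-VP16 expression switched on by copper sulfate through the metallothionein promoter; nearly all actives have a fitted effect of over 50% in size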
conditions used: Drosophila S2 Gal4-VP16 UAS-luciferase, luminescence, 20 h; series mostly up to 53.6 µM
Hit rate of the full screen: of about 310,000 compounds, about 11,000 (3.5%) were called active. Not shown: some 8% with an inconclusive outcome. Calls follow the shape of the dose curve; as a rule, active = well fitted inhibition curve with a large enough effect; inconclusive = small, poorly fitted or top-dose-only effect, or effect the other way; inactive = flat fitted curve, though single readings scatter. The full list was thinned out, with actives kept by preference.
# output must be one of active, inactive

[
  {
    "compound structure string": "O=C(NNC1=NCCC1)c1cccc(S(=O)(=O)N2CCCCC2)c1",
    "discrete label": "active"
  },
  {
    "compound structure string": "COC(=O)Cc1ccc(OCC(=O)Nc2ccc(OC(F)(F)F)cc2)cc1",
    "discrete label": "inactive"
  },
  {
    "compound structure string": "O=S1(=O)CCO[C@H]2Cc3ccccc3[C@H]2N1Cc1ccccc1",
    "discrete label": "inactive"
  }
]

Which outcome was entered for the compound COc1cc2ccccc2cc1C(=O)N(CCN(C)C)c1nc2c(F)cccc2s1 in this test? inactive

And CCSc1nc2sc3c(c2c(=O)[nH]1)CC(C)(C)OC3 ? inactive

And O=C(Nc1cccc(C(F)(F)F)c1)c1cnccn1 ? inactive

And C/C(=N\NC(=O)c1ccccc1C)c1ccc(N2CCOCC2)cc1 ? inactive

And CC(C)CC(=O)NC(=S)Nc1cc(C(=O)O)ccc1Cl ? inactive

And O=C(CO/N=C/c1ccccc1OC(F)F)NC1CCCC1 ? inactive

###

protocol description: VP16 counterscreen qHTS for inhibitors of ROR gamma transcriptional activity;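 further: Gal4-VP16 expression switched on by copper sulfate through the metallothionein promoter; nearly all actives have a fitted effect of over 50% in size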
conditions used: Drosophila S2 Gal4-VP16 UAS-luciferase, luminescence, 20 h; series mostly up to 53.6 µM
The campaign covered roughly 310,000 compounds. About 11,000 (3.5%) were called active. About 8% were inconclusive and are not listed. Calls follow the shape of the dose curve; as a rule, active = well fitted inhibition curve with a large enough effect; inconclusive = small, poorly fitted or top-dose-only effect, or effect the other way; inactive = flat fitted curve, though single readings scatter. This is one part of a sample in which actives are shown more often than they occur.
# output must be one of 1 = active, 0 = inactive

Here are 2 molecules together with their reported answers.
[
  {
    "molecule": "O=c1oc2ccccc2cc1-c1cn(-c2ccccc2)c(=S)[nH]1",
    "discrete label": 1
  },
  {
    "molecule": "CCC(C(=O)OC)n1cnc2scc(-c3ccc(C)cc3)c2c1=O (stereo not given)",
    "discrete label": 0
  }
]

Which outcome was entered for the molecule O=C(O)COc1ccc(/C=N/O)cc1Br in this test? 0

And COc1ccc(CNS(=O)(=O)c2cc(-c3cc(C)no3)ccc2C(C)C)cc1 ? 0

And Cc1c(C(=O)NCC(c2ccco2)N2CCCC2)oc2ccc(Cl)cc12 (stereo not given) ? 0
